# SYSTEM: Cytochrome P450 1A2 (Homo sapiens)
# ASSAY_DETAILS: Cytochrome panel assay with activity outcomes
# CONDITION_SUMMARY: recombinant CYP, pro-luciferin dealkylation, luminescence, p450-cyp1a2; series mostly up to 57.1 µM
Hit rate of the full screen: of about 16,000 compounds, about 5,700 (36%) were called active. Another 24% or so got no clear call; they are omitted. Calls follow the shape of the dose curve; as a rule, active = well fitted curve in the direction sought with a large enough effect; inconclusive = small, poorly fitted or top-dose-only effect, or effect the other way; inactive = no such curve, though single readings can be large or run the other way. The list shows a part of the results.
Parameter call: string, one of active, inactive

Some solved entries appear below for comparison.
{"MOLECULE": "O=S1(=O)C=C(Oc2ccc3ccccc3c2)c2ccccc21", "ASSIGNED_CLASS": "active"}
{"MOLECULE": "COc1cccc(-c2cc(NCc3ccc(OC)cc3OC)ncn2)c1", "ASSIGNED_CLASS": "active"}
{"MOLECULE": "CCOC(=O)O[C@]1(C(=O)COC(=O)CC)CC[C@@H]2[C@@H]3CCC4=CC(=O)C=C[C@@]4(C)[C@H]3[C@H](O)C[C@]21C", "ASSIGNED_CLASS": "inactive"}
{"MOLECULE": "CN(CCCNC(=O)C1CCC(=O)N1Cc1ccccc1Cl)c1ccccc1 (stereo unspecified)", "ASSIGNED_CLASS": "inactive"}
{"MOLECULE": "COc1ccc(CNC(=O)c2csc(Cc3ccc(OC)cc3)n2)cc1", "ASSIGNED_CLASS": "active"}

Problem: How was COc1ccc(Cc2nnc(NC(=O)c3cccc([N+](=O)[O-])c3C)s2)cc1 classified in this test?
Solution: inactive

Problem: How was C[C@H](O)C(=O)Nc1c(I)c(C(=O)NC(CO)CO)c(I)c(C(=O)NC(CO)CO)c1I classified in this test?
Solution: inactive

Problem: How was CCOC(=O)n1c(=O)n(Cc2ccccc2Cl)c2ccccc21 classified in this test?
Solution: active

Problem: How was Cc1ccccc1-c1nc(NCc2cccnc2)c2ccccc2n1 classified in this test?
Solution: active

Problem: How was CC(C)CC(C(=O)NCC1CCCO1)N(C(=O)Cn1nnc(-c2ccc(F)cc2)n1)c1cccc(C(F)(F)F)c1 (stereo unspecified) classified in this test?
Solution: inactive

Problem: How was CCCNc1c(F)c(F)c2c(C)c3ccccc3nc2c1F classified in this test?
Solution: active

Problem: How was Cc1nnc(NC(=O)CSc2ncnc3c2cnn3-c2ccccc2C)s1 classified in this test?
Solution: inactive

Problem: How was CN(C/C=C\c1ccccc1)Cc1cccc2ccccc12 classified in this test?
Solution: active

Problem: How was Cc1c(OC(=O)c2ccc([N+](=O)[O-])cc2)c2c(c[n+]1C)COC(C)(C)OC2 classified in this test?
Solution: active

Problem: How was FC(F)(F)c1ccccc1-c1nc(NCc2cccnc2)c2ccccc2n1 classified in this test?
Solution: active

Problem: How was COC(=O)Cn1c(=O)c2c(nc(Br)n2Cc2ccccc2Cl)n(C)c1=O classified in this test?
Solution: inactive

Problem: How was CC(C)CCOc1ccc(NC(=O)C2OC3OC(C)(C)OC3C3OC(C)(C)OC23)cc1 (stereo unspecified) classified in this test?
Solution: inactive

Problem: How was CN(Cc1cccc2ccccc12)Cc1cccc2ccccc12 classified in this test?
Solution: active

Problem: How was COc1ccc(C2/C(=C(/O)c3ccc4c(c3)CC(C)O4)C(=O)C(=O)N2CCN2CCOCC2)cc1 (stereo unspecified) classified in this test?
Solution: inactive

Problem: How was CCn1nc(C)c(NC(=O)/C=C/c2cnn(C)c2C)c1C classified in this test?
Solution: inactive

Problem: How was COc1cccc(-c2cc(NCc3ccccc3OC)ncn2)c1 classified in this test?
Solution: active

---

# SYSTEM: Cytochrome P450 1A2 (Homo sapiens) (UniProt P05177)
# Sequence (P05177 whole entry, looked up): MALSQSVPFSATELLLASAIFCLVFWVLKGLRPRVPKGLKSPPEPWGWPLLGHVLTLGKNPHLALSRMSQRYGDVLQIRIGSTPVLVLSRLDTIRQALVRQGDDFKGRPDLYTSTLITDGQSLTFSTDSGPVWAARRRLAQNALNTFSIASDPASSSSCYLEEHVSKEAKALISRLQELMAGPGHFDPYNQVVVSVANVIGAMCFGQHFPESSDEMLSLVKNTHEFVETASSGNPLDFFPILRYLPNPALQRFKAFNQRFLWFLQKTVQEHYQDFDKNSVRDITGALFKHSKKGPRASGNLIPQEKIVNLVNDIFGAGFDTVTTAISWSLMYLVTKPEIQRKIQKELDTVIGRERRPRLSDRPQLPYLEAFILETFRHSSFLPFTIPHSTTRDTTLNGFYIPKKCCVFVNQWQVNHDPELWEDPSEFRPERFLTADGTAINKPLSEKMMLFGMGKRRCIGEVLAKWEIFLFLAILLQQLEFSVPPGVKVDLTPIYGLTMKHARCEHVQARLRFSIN
# ASSAY_DETAILS: Cytochrome panel assay with activity outcomes
# CONDITION_SUMMARY: recombinant CYP, pro-luciferin dealkylation, luminescence, p450-cyp1a2; series mostly up to 57.1 µM
# Experimental: The P450 gene superfamily is involved in the metabolism and clearance of xenobiotics. This assay used various human CYP P450 isozymes to measure the dealkylation of various pro-luciferin substrates to luciferin. The luciferin is then measured by luminescence after the addition of a luciferase detection reagent. […] Inhibitors and some substrates limit the production of luciferin, and decrease measured luminescence. […] 8, Detection, 1 sec, ViewLux luminescent read […]
Out of some 16,000 compounds screened, about 5,700 (36%) were called active. Another 24% or so got no clear call; they are omitted. Calls follow the shape of the dose curve; as a rule, active = well fitted curve in the direction sought with a large enough effect; inconclusive = small, poorly fitted or top-dose-only effect, or effect the other way; inactive = no such curve, though single readings can be large or run the other way. The list shows a part of the results.
Parameter call: string, one of 1 = active, 0 = inactive

{"MOLECULE": "CCC1Oc2ccccc2N(CC(=O)NCCCN2CCCCC2C)C1=O (centres undefined)", "ASSIGNED_CLASS": 0}
{"MOLECULE": "Nc1ccc(N(c2ccccc2)c2ccc(N)cc2)cc1", "ASSIGNED_CLASS": 1}
{"MOLECULE": "O=C(CCCn1c(=S)[nH]c2cc3c(cc2c1=O)OCO3)N1CCN(c2ncccn2)CC1", "ASSIGNED_CLASS": 1}
{"MOLECULE": "COc1ccc(-n2c(=O)c(-c3cccs3)nc3cncnc32)cc1", "ASSIGNED_CLASS": 1}
{"MOLECULE": "O=c1c(-c2cccs2)nc2cncnc2n1-c1ccccc1", "ASSIGNED_CLASS": 1}
{"MOLECULE": "COC(=O)C(NNc1ccccc1)(NC(=O)c1ccccc1F)C(F)(F)F (centres undefined)", "ASSIGNED_CLASS": 0}
{"MOLECULE": "CCCCNC(=O)CCn1c(=S)[nH]c2cc3c(cc2c1=O)OCO3", "ASSIGNED_CLASS": 1}
{"MOLECULE": "CCNc1ncc2nc(-c3ccc(OC)cc3)c(=O)n(-c3ccc(OC)cc3)c2n1", "ASSIGNED_CLASS": 0}

Problem: How was COn1c(SC(C)C)nc2ccccc2c1=O classified in this test?
Solution: 1

---

# SYSTEM: Cytochrome P450 1A2 (Homo sapiens) (UniProt P05177)
# ASSAY_DETAILS: Cytochrome panel assay with activity outcomes; as to activity, negative = inhibition: % is scaled to controls: 0 for no effect and ±100 for the full control effect
# CONDITION_SUMMARY: recombinant CYP, pro-luciferin dealkylation, luminescence, p450-cyp1a2; series mostly up to 57.1 µM
Out of some 16,000 compounds screened, about 5,700 (36%) were called active. Inconclusive results (about 24%) are left out. The list shows a part of the results.
QUANTITY_NAME: activity, negative = inhibition

# annotated cases, reported activity, negative = inhibition shown
{"SMILES_STR": "Cc1c(N2CCCC2)cc2c(c1NC(=O)c1ccccc1Cl)C(C)(C)CC2(C)C", "SYSTEM": "Cytochrome P450 1A2 (Homo sapiens) (UniProt P05177)", "activity, negative = inhibition": "-13.1% [at 2.29 µM] (inactive)"}
{"SMILES_STR": "CC(CCC(=O)O)(c1cc(Br)c(O)c(Br)c1)c1cc(Br)c(O)c(Br)c1", "SYSTEM": "Cytochrome P450 1A2 (Homo sapiens) (UniProt P05177)", "activity, negative = inhibition": "-17.9% [at 2.29 µM] (inactive)"}
{"SMILES_STR": "CC(C)(C)OC(=O)[C@H]([C@@H]1N[C@@H](C(=O)O)C(C)(C)S1)N1C(=O)c2ccccc2C1=O", "SYSTEM": "Cytochrome P450 1A2 (Homo sapiens) (UniProt P05177)", "activity, negative = inhibition": "-1.41% [at 2.29 µM] (inactive)"}

Problem: Fetch value of activity, negative = inhibition on Cytochrome P450 1A2 (Homo sapiens) (UniProt P05177) for COc1ccc(COC(=O)N/N=C2/C[C@@H](O)[C@@H](O)[C@@H]3[C@@H]4C(=O)N([C@@H](C)c5ccccc5)C(=O)[C@H]4CC[C@H]23)cc1 .
Solution: -2.7% [at 11.4 µM] (inactive)

Problem: Fetch value of activity, negative = inhibition on Cytochrome P450 1A2 (Homo sapiens) (UniProt P05177) for CCN(CC(=O)O)CC(=O)O .
Solution: -5.21% [at 11.4 µM] (inactive)

---

# SYSTEM: Cytochrome P450 1A2 (Homo sapiens) (UniProt P05177)
# ASSAY_DETAILS: Cytochrome panel assay with activity outcomes
# CONDITION_SUMMARY: recombinant CYP, pro-luciferin dealkylation, luminescence, p450-cyp1a2; series mostly up to 57.1 µM
# Method: The P450 gene superfamily is involved in the metabolism and clearance of xenobiotics. This assay used various human CYP P450 isozymes to measure the dealkylation of various pro-luciferin substrates to luciferin. The luciferin is then measured by luminescence after the addition of a luciferase detection reagent. […] Inhibitors and some substrates limit the production of luciferin, and decrease measured luminescence. […] 8, Detection, 1 sec, ViewLux luminescent read […]
Among all 16,000 compounds or so, about 5,700 (36%) were called active. Another 24% or so got no clear call; they are omitted. The call rests on the fitted dose curve; in most records, active means well fitted curve in the direction sought with a large enough effect; inconclusive means small, poorly fitted or top-dose-only effect, or effect the other way; inactive means no such curve, though single readings can be large or run the other way. This is one part of the list.
Parameter call: string, one of 1.0 (active), 0.0 (inactive)

{"COMPOUND": "CCc1cccc2nc3c(c([Si](C)(C)C)c12)Cn1c-3cccc1=O", "ASSIGNED_CLASS": 1.0}
{"COMPOUND": "NC(=O)c1ccc(NC(=O)C2CCCO2)cc1 (stereo unspecified)", "ASSIGNED_CLASS": 0.0}
{"COMPOUND": "CCOC(=O)c1ccc(NC(=O)C2CCCO2)cc1 (stereo unspecified)", "ASSIGNED_CLASS": 1.0}
{"COMPOUND": "O=C(c1ccccc1)c1ccc(OCC(O)CN2CCN(Cc3ccccc3)CC2)cc1 (stereo unspecified)", "ASSIGNED_CLASS": 0.0}
{"COMPOUND": "Nc1ccc(-c2nc3c(Cl)c(N)ccc3[nH]2)cc1", "ASSIGNED_CLASS": 1.0}
{"COMPOUND": "CCc1ccc(/C=C\\C(=O)N2CCc3ccccc3C2)cc1", "ASSIGNED_CLASS": 1.0}
{"COMPOUND": "COc1ccc(S(=O)(=O)N(CCc2ccccc2)CC(=O)N2CCOCC2)cc1", "ASSIGNED_CLASS": 0.0}
{"COMPOUND": "CC(C)(C)C1CCC(OCC(O)CN2CCN(c3ccccc3)CC2)CC1 (stereo unspecified)", "ASSIGNED_CLASS": 0.0}

Problem: How was O=C(c1ccc(CN2CCc3ccccc3C2)cc1)N1CCc2ccccc2C1 classified in this test?
Solution: 0.0

Problem: How was COc1ccccc1OCCCCCc1c(C)n[nH]c1C classified in this test?
Solution: 1.0

Problem: How was O=C1c2cccc3cccc(c23)C(=O)N1CC1CCN(CC(O)COc2ccc3ccccc3c2)CC1 (stereo unspecified) classified in this test?
Solution: 1.0
